tested on: rats; experiment: Penile erection test using rats; assay type: in vivo, rat; conditions: oral single dose 10 mg/kg in 0.5% methyl cellulose, observed for 2 hours
Some compounds, each annotated with its measured PEI (penile erection index).
ATTRIBUTE_MEASURED: PEI (penile erection index)

COMPOUND: CCOc1ccc(S(=O)(=O)NCc2ccccc2)cc1-c1nc2c(CC(C)C)nn(C)c2c(=O)[nH]1
VALUE_MEASURED: 533.3
--
COMPOUND: CCCc1nn(CC)c2c(=O)[nH]c(-c3cc(S(=O)(=O)NCc4ccncc4)ccc3OCC)nc12
VALUE_MEASURED: 22.2
--
COMPOUND: CCCc1nn(C)c2c(=O)[nH]c(-c3cc(S(=O)(=O)NCc4cccnc4)ccc3OCC)nc12
VALUE_MEASURED: 200.0
--
COMPOUND: CCOc1ccc(S(=O)(=O)NCc2ccccn2)cc1-c1nc2c(CC(C)C)nn(C)c2c(=O)[nH]1
VALUE_MEASURED: 233.3
--
COMPOUND: CCCc1nn(C)c2c(=O)[nH]c(-c3cc(S(=O)(=O)NC4CCC4)ccc3OCC)nc12
VALUE_MEASURED: 66.7
--
COMPOUND: CCCc1nn(CC)c2c(=O)[nH]c(-c3cc(S(=O)(=O)Nc4cccnc4)ccc3OCC)nc12
VALUE_MEASURED: 177.8
--
COMPOUND: CCCCNS(=O)(=O)c1ccc(OCC)c(-c2nc3c(CCC)nn(C)c3c(=O)[nH]2)c1
VALUE_MEASURED: 200.0
--
COMPOUND: CCOc1ccc(S(=O)(=O)NCc2ccncc2)cc1-c1nc2c(CC(C)C)nn(C)c2c(=O)[nH]1
VALUE_MEASURED: 200.0
--
COMPOUND: CCCc1nn(C)c2c(=O)[nH]c(-c3cc(S(=O)(=O)NCC4CCCO4)ccc3OCC)nc12 (centres unmarked)
VALUE_MEASURED: 44.4
--
COMPOUND: CCCc1nn(C)c2c(=O)[nH]c(-c3cc(S(=O)(=O)NC(CC)CC)ccc3OCC)nc12
VALUE_MEASURED: 100
--
COMPOUND: CCCc1nn(C)c2c(=O)[nH]c(-c3cc(S(=O)(=O)Nc4ccncc4)ccc3OCC)nc12
VALUE_MEASURED: 166.7
--
COMPOUND: CCCc1nn(C)c2c(=O)[nH]c(-c3cc(S(=O)(=O)NC(C)(C)C)ccc3OCC)nc12
VALUE_MEASURED: 22.2
--
COMPOUND: CCCc1nn(C)c2c(=O)[nH]c(-c3cc(S(=O)(=O)NC4CCCCC4)ccc3OCC)nc12
VALUE_MEASURED: 233.3
--
COMPOUND: CCOc1ccc(S(=O)(=O)NCC2CCN(C)C2)cc1-c1nc2c(CC(C)C)nn(C)c2c(=O)[nH]1 (centres unmarked)
VALUE_MEASURED: 200.0
